The origin of these recorded values is paper PMC9455983.

Molecular target: mu-opioid receptor (MOR) (Rattus norvegicus)
Construct: Rat cortices were homogenized using 50 mM Tris, pH 7.4, and centrifuged at 16,500 rpm for 10 min; from tissue; host or cells: rat cortex membranes
Assay: MOR radioligand competition binding assay ([3H]-DAMGO)
Conditions: Mu screening results, mean of two experiments; read-out: Ki
Protocol: MOR binding assay: Rat cortices were homogenized using 50 mM Tris, pH 7.4, and centrifuged at 16,500 rpm for 10 min. The pellets were resuspended in fresh buffer and incubated at 37 °C for 30 min. […] All three binding assays were terminated by filtration through GF/B filters, soaked in 5 mg/mL bovine serum albumin, 50 mM Tris, pH 7.4, on a Tomtec Mach II Harvester 96. […] Bound radioactivity was counted on a Wallac Betaplate Liquid Scintillation Counter. […]
pKi: −log10 of the molar value.
Test readout: pKi

>>> print(df.to_string())
                  compound_structure_string  recorded_value
0  Cc1cc(O)cc(C)c1C[C@@H](CN1C(=N)NC[C@@H]1Cc1ccc(O)cc1)N1C[C@H](Cc2ccccc2)NC1=N            6.94
1  CC(C)C[C@H]1CN([C@@H](Cc2ccc(O)cc2)CN2C(=N)NC[C@@H]2C)C(=N)N1            5.82
2  Cc1cc(O)cc(C)c1C[C@H]1CNC(=N)N1C[C@H](CC(C)C)N1C[C@H](CC(C)C)NC1=N            6.79
3  CC(C)C[C@@H](CN1C(=N)NC[C@@H]1Cc1ccc(O)cc1)N1C[C@H](Cc2ccccc2)NC1=N            6.15

* * *

Molecular target: delta-opioid receptor (DOR) (Rattus norvegicus)
Construct: Rat cortices were homogenized using 50 mM Tris, pH 7.4, 10 mM MgCl2-6H2O, 200 µM PMSF; from tissue; host or cells: rat cortex membranes
Experiment: DOR radioligand competition binding assay ([3H]-DPDPE)
Settings: Delta screening results, second Ki column; unit not printed (apparently M); read-out: Ki (second column)
pKi: −log10 of the molar value.
Test readout: pKi

>>> print(df.to_string())
                  compound_structure_string  test_readout  recorded_value
0  Cc1cc(O)cc(C)c1C[C@@H](CN1C(=N)NC[C@@H]1Cc1ccc(O)cc1)N1C[C@H](Cc2ccccc2)NC1=N           pKi            6.15
1  N=C1NC[C@H](Cc2ccc(O)cc2)N1C[C@H](Cc1ccccc1)N1C[C@H](Cc2ccc(O)cc2)NC1=N           pKi            5.07
2  CC(C)C[C@@H](CN1C(=N)NC[C@@H]1Cc1ccccc1)N1C[C@H](Cc2ccc(O)cc2)NC1=N           pKi            5.66
3  C[C@H]1CNC(=N)N1C[C@H](Cc1ccccc1)N1C[C@H](Cc2ccccc2)NC1=N           pKi            5.23

* * *

Molecular target: kappa-opioid receptor (KOR) (Cavia porcellus, UniProt P41144)
Construct: Guinea pig cortices and cerebella were homogenized using 50 mM Tris, pH 7.4; from tissue; host or cells: guinea pig cortex and cerebellum membranes
Test: KOR radioligand competition binding assay ([3H]U69,593)
Parameters: species or system guinea pig
Settings: Kappa screening results, experiment 2; unit inferred; read-out: Ki (Exp 2)
Entries annotated with measured log10 Ki
Test readout: log10 Ki (log10 of the value in nM)

>>> df
                                   compound  recorded_value
0  Cc1cc(O)cc(C)c1C[C@H]1CN([C@@H](Cc2ccccc2)CN2C(=N)NC[C@@H]2C)C(=N)N1 [1968-36]            3.12
1  Cc1cc(O)cc(C)c1C[C@H]1CN([C@@H](Cc2ccccc2)CN2C(=N)NC[C@@H]2Cc2ccc(O)cc2)C(=N)N1 [1968-20]            2.82
2  Cc1cc(O)cc(C)c1C[C@H]1CN([C@@H](CC(C)C)CN2C(=N)NC[C@@H]2Cc2ccccc2)C(=N)N1 [1968-12]            3.11
3  Cc1cc(O)cc(C)c1C[C@H]1CNC(=N)N1C[C@H](Cc1c(C)cc(O)cc1C)N1C[C@H](Cc2ccccc2)NC1=N [1968-61]            3.09
4  Cc1cc(O)cc(C)c1C[C@H]1CN([C@@H](Cc2ccc(O)cc2)CN2C(=N)NC[C@@H]2Cc2c(C)cc(O)cc2C)C(=N)N1 [1968-56]            3.10
5  Cc1cc(O)cc(C)c1C[C@H]1CN([C@@H](Cc2c(C)cc(O)cc2C)CN2C(=N)NC[C@@H]2Cc2ccccc2)C(=N)N1 [1968-68]            2.75
6  CC(C)C[C@H]1CN([C@@H](CC(C)C)CN2C(=N)NC[C@@H]2Cc2ccccc2)C(=N)N1 [1968-11]            3.95
